The origin of these recorded values is PubChem BioAssay AID641.

biological target: D(1A) dopamine receptor (Homo sapiens) (UniProt P21728); experiment: D1 CRE-luciferase signal change, two-sided – cell-based, HEK293 D1, dopamine EC30, D1 allosteric modulator project, primary screen (AID 641); conditions: dopamine EC30 potentiation, at 10 µM, actives deviate in either direction
Sequence (P21728 whole entry, looked up): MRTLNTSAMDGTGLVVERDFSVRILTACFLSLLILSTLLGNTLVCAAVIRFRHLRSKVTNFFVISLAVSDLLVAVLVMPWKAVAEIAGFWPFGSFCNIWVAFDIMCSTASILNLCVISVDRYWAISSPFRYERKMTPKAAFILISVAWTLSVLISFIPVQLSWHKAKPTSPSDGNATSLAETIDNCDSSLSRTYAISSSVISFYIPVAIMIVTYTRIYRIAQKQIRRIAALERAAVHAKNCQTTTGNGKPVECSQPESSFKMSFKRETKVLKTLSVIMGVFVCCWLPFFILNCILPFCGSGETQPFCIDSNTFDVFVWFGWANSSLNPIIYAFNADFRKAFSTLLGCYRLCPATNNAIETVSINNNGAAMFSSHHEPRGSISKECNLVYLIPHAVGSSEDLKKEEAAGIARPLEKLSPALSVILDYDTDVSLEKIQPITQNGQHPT
The campaign covered roughly 58,000 compounds. About 3,400 (5.9%) were called active.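 The calls were made as follows: active = luminescence count or its row- and column-corrected plate score outside the 99.7% band of the plate's sample wells, on either side; inactive = the rest.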 For the sample, actives were picked, then their nearest neighbours and some compounds at random.
Classes used: active, inactive

{"Compound": "COc1ccc(CCNC(=O)C2CCN(c3nn4c(=O)cc(C)nc4s3)CC2)cc1OC", "Discrete label": "inactive"}
{"Compound": "COc1ccc(-c2cc(C(F)(F)F)nc(SCCC(=O)NCc3ccco3)n2)cc1", "Discrete label": "inactive"}
{"Compound": "CCN1CCCC1CNc1ncnc2c1[nH]c1ccc(F)cc12 (stereo not drawn)", "Discrete label": "inactive"}
{"Compound": "CCc1nc(C)cn1S(=O)(=O)c1cc(OC)c(C)cc1C", "Discrete label": "inactive"}
{"Compound": "CCc1ccc2oc(=O)cc(CN3CCCCC3C)c2c1 (stereo not drawn)", "Discrete label": "active"}
{"Compound": "Cc1nc(Nc2ccc3c(c2)OCCO3)c2nnn(Cc3ccccc3Cl)c2n1", "Discrete label": "inactive"}
{"Compound": "Cc1onc(-c2ccccc2)c1C(=O)Nc1ccccc1C#N", "Discrete label": "active"}
{"Compound": "C=CCc1cccc2cc(C(=O)N3CCN(C(=O)OCC)CC3)c(=O)oc12", "Discrete label": "inactive"}
{"Compound": "COC(=O)Cc1cc(=O)n(-c2nc3ccccc3s2)[nH]1", "Discrete label": "inactive"}
{"Compound": "COC(=O)C1C(=O)c2c([nH]c(C(=O)OCCSC)c2C)CC1C (stereo not drawn)", "Discrete label": "inactive"}
{"Compound": "CC1CCCCN1CC(=O)NCc1ccc2c(c1)OCO2 (stereo not drawn)", "Discrete label": "inactive"}
{"Compound": "O=C(Nc1nc(-c2ccc3c(c2)OCO3)cs1)c1ccncc1", "Discrete label": "active"}
{"Compound": "O=C1CCCN1CCCNc1ncnc2c1[nH]c1ccccc12", "Discrete label": "inactive"}
{"Compound": "Cn1c(SCc2c(F)cccc2Cl)nnc1-c1cnccn1", "Discrete label": "inactive"}
{"Compound": "O=C(NC1CCCCC1)C1CCCN(S(=O)(=O)c2cccs2)C1 (stereo not drawn)", "Discrete label": "inactive"}
{"Compound": "O=C(O)CSCc1nc2ccccc2s1", "Discrete label": "inactive"}
{"Compound": "CC1(C)CC(=O)C=C(NCc2ccncc2)C1", "Discrete label": "inactive"}
{"Compound": "COc1ccc(-c2ccc(Nc3ccc(S(=O)(=O)N4CCCC4)cc3)nn2)cc1OC", "Discrete label": "inactive"}
{"Compound": "Cc1ccccc1C(=O)Nc1cccc(-c2nnc(SCC(=O)O)n2C)c1", "Discrete label": "inactive"}
{"Compound": "CCOC(=O)c1ccc(Nc2cc(C)nc3nc(C)nn23)cc1", "Discrete label": "inactive"}
{"Compound": "COc1ccc(OC)c2sc(NC(=O)C3COc4ccccc4O3)nc12 (stereo not drawn)", "Discrete label": "inactive"}
{"Compound": "COc1ccccc1NC1=NC2(CCCC2)N=C(N)N1", "Discrete label": "active"}
{"Compound": "COC(=O)c1cc(OC)c(OC)cc1NC(=O)C1CCCO1 (stereo not drawn)", "Discrete label": "inactive"}
{"Compound": "CCc1ccccc1N(CC(=O)NCCSCc1ccco1)S(C)(=O)=O", "Discrete label": "inactive"}
{"Compound": "COc1ccccc1NC1=NC(c2ccc(Cl)cc2)N=C(N)N1 (stereo not drawn)", "Discrete label": "inactive"}
{"Compound": "Cc1c(CN2CCC(C)CC2)c(=O)n(-c2ccccc2)n1C", "Discrete label": "inactive"}
{"Compound": "O=C(CN1C(=O)c2ccccc2S1(=O)=O)N1CCc2ccccc21", "Discrete label": "active"}
{"Compound": "N#CC1=C(N)Oc2cc(O)ccc2C1C1CCCCC1 (stereo not drawn)", "Discrete label": "inactive"}
{"Compound": "CC(=O)NC(C)c1nc2ccccc2n1Cc1ccccc1F (stereo not drawn)", "Discrete label": "inactive"}
{"Compound": "Cc1ccccc1Cn1c(=O)[nH]c2ccccc21", "Discrete label": "inactive"}
{"Compound": "O=P(c1cccs1)(c1cccs1)c1cccs1", "Discrete label": "inactive"}
{"Compound": "CN1C(=O)c2ccc(NC(=O)c3c(F)c(F)c(F)c(F)c3F)cc2C1=O", "Discrete label": "inactive"}
{"Compound": "CCOC(=O)N1CCC(NC(=O)c2cnn3ccccc23)CC1", "Discrete label": "inactive"}
{"Compound": "NC(=O)c1ccsc1NC(=O)c1ccco1", "Discrete label": "inactive"}
{"Compound": "CCn1c(SCCC(C)C)nnc1-c1c[nH]c2ccccc12", "Discrete label": "inactive"}
{"Compound": "CCOC(=O)N1CCC(NC(=O)COc2cc(=O)n(C)c3ccccc23)CC1", "Discrete label": "inactive"}
{"Compound": "Cc1ccc(-c2nnc(SC(C)C#N)n2N)cc1 (stereo not drawn)", "Discrete label": "inactive"}
{"Compound": "CCOC(=O)c1[nH]c2c(c1C)C(=O)CC(c1ccc(N(C)C)cc1)C2 (stereo not drawn)", "Discrete label": "inactive"}
{"Compound": "COC(=O)C1=C(C)NC2=C(C(=O)c3ccccc32)C1c1ccc(-c2ccc(C(=O)O)cc2)o1 (stereo not drawn)", "Discrete label": "active"}
{"Compound": "Cc1cc(=O)cc(C)[nH]1", "Discrete label": "inactive"}
{"Compound": "C#CCNc1nc(C(C)C)nc2c1nnn2Cc1ccccc1F", "Discrete label": "active"}
{"Compound": "CC(=O)NCCc1ccc(S(=O)(=O)N(C)C2CCS(=O)(=O)C2)cc1 (stereo not drawn)", "Discrete label": "inactive"}
{"Compound": "CC1OC2C(OC1C)N(S(C)(=O)=O)CCN2S(C)(=O)=O (stereo not drawn)", "Discrete label": "inactive"}
{"Compound": "COc1ccccc1NC(=O)C1=C(C)NC2=C(C(=O)CCC2)C1c1ccc(C)o1 (stereo not drawn)", "Discrete label": "inactive"}
{"Compound": "Cc1onc(-c2ccccc2)c1C(=O)N1CCOCC1", "Discrete label": "inactive"}
{"Compound": "CS(=O)(=O)N1CCN(C(=O)Cc2ccccc2)CC1", "Discrete label": "inactive"}
{"Compound": "COC(=O)C1=C(C)NC(=O)NC1/C=C/c1ccccc1 (stereo not drawn)", "Discrete label": "inactive"}
{"Compound": "CCCOC(=O)c1[nH]c2c(c1C)C(=O)CC(c1cc(OC)c(OC)c(OC)c1)C2 (stereo not drawn)", "Discrete label": "active"}
